Listing: pKi of selected molecules
Molecular target: recombinant RORγ Ligand Binding Domain (LBD) protein (Homo sapiens (Human))
Assay: Radio-Ligand RORγ Binding Assay (Assay 1)
Conditions: competition with 25-hydroxy [26,27-3H]-cholesterol, SPA; Table 9; read-out: RORγ Binding Ki Range*
pKi: −log10 of the molar value.

>>> reported_measurement("CC(C)[C@H]1c2nc(NC(=O)Cc3ccc(S(C)(=O)=O)cc3F)sc2CN1Cc1cnc(C(F)(F)F)nc1")
"6.00 to 7.00"

If you can, please state the reported pKi value of CCS(=O)(=O)c1ccc(CC(=O)Nc2nc3c(s2)CN(Cc2ccc(C(=O)O)cc2)[C@H]3C(C)C)cc1 .
> 7.00

// repeat for CC1(C)c2nc(NC(=O)Cc3ccc(S(C)(=O)=O)cc3)sc2CN1c1ncc(C(F)(F)F)cn1 and report
6.00 to 7.00

// repeat for CC(C)[C@H]1c2nc(NC(=O)Cc3ccc(-c4nnn(C)n4)cc3)sc2CN1Cc1ccc(Cl)cc1 and report
6.00 to 7.00

====

Target: recombinant RORγ Ligand Binding Domain (LBD) protein (Homo sapiens (Human))
Experiment: Radio-Ligand RORγ Binding Assay (Assay 1)
Conditions: competition with 25-hydroxy [26,27-3H]-cholesterol, SPA; Table 9; read-out: RORγ Binding Ki Range*
pKi: −log10 of the molar value.
Listing: pKi of selected compounds

See these solved cases before continuing.
>>> reported_measurement("CC(C)[C@H]1c2nc(NC(=O)Cc3ccc(S(C)(=O)=O)cc3)sc2CN1c1nc(Cl)ncc1C#N")
"6.00 to 7.00"
>>> reported_measurement("CCS(=O)(=O)c1ccc(CC(=O)Nc2nc3c(s2)CN(Cc2ccc(S(C)(=O)=O)cc2)C3(C)C)cc1")
"< 6.00"
>>> reported_measurement("CC(C)[C@H]1c2nc(NC(=O)Cc3ccn4ccnc4c3)sc2CN1Cc1ccc(C(F)(F)F)cc1")
"6.00 to 7.00"
>>> reported_measurement("CCS(=O)(=O)c1ccc(CC(=O)Nc2nc3c(s2)CN(Cc2cnc(C)nc2)[C@H]3C(C)C)cc1")
"> 7.00"
>>> reported_measurement("CCS(=O)(=O)c1ccc(CC(=O)Nc2nc3c(s2)CN(Cc2cnc(N)nc2)[C@H]3C(C)C)cc1")
"6.00 to 7.00"
>>> reported_measurement("CC(C)[C@@H]1c2nc(NC(=O)Cc3ccc(S(C)(=O)=O)cc3)sc2CN1Cc1cccc(Cl)c1")
"> 7.00"

If you can, please state the reported pKi value of Cc1ccc(CN2Cc3sc(NC(=O)Cc4ccc(S(C)(=O)=O)cc4)nc3[C@H]2C(C)C)cc1 .
6.00 to 7.00

// repeat for CC(C)[C@H]1c2nc(NC(=O)Cc3ccc(S(N)(=O)=O)cc3)sc2CN1Cc1ccc(C(F)(F)F)cc1 and report
> 7.00

// repeat for CCS(=O)(=O)c1ccc(CC(=O)Nc2nc3c(s2)CN(Cc2ccc(C)nn2)[C@H]3C(C)C)cc1 and report
> 7.00

====

Molecular target: recombinant RORγ Ligand Binding Domain (LBD) protein (Homo sapiens (Human), UniProt P51449)
Sequence (P51449 269-508): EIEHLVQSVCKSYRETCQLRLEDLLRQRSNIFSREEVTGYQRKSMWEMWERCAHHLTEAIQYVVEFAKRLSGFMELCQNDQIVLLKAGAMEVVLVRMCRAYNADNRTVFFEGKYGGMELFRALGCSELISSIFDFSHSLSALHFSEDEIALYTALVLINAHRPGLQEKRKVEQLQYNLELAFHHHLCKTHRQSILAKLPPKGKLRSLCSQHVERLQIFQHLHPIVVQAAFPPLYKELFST
Assay: Radio-Ligand RORγ Binding Assay (Assay 1)
Details: competition with 25-hydroxy [26,27-3H]-cholesterol, SPA; Table 9; read-out: RORγ Binding Ki Range*
Listing: Ki of selected compounds

>>> reported_measurement("CCS(=O)(=O)c1ccc(CC(=O)Nc2nc3c(s2)CN(Cc2ccncc2)[C@H]3C(C)C)cc1")
"< 100 nM"
>>> reported_measurement("CC[C@H]1c2nc(NC(=O)Cc3ccc(S(=O)(=O)CC)cc3)sc2CN1[C@@H](C)Cc1ccccc1")
"< 100 nM"
>>> reported_measurement("Cc1cc(CN2Cc3sc(NC(=O)Cc4ccc(C#N)cc4)nc3[C@@H]2C(C)C)ccc1C#N")
"< 100 nM"
>>> reported_measurement("CC1(C)c2nc(NC(=O)Cc3ccc(S(C)(=O)=O)cc3)sc2CN1Cc1ccc(Cl)cc1")
"100 to 1000 nM"
>>> reported_measurement("CCS(=O)(=O)c1ccc(CNC(=O)c2nc3c(s2)CN(CC2CN(CC(F)(F)F)CCO2)[C@H]3C(C)C)cc1 (some centres unmarked)")
"< 100 nM"

If you can, please state the reported Ki value of CC[C@H]1c2nc(NC(=O)Cc3ccc(S(=O)(=O)CC)cc3)sc2CN1Cc1ccc2nc[nH]c2c1 .
< 100 nM

// repeat for CCS(=O)(=O)c1ccc(CNC(=O)c2nc3c(s2)CN(C[C@H]2CC[C@H](C(F)(F)F)CC2)[C@H]3C(C)C)nc1 and report
100 to 1000 nM

// repeat for CCOC(=O)c1cnc(N2Cc3sc(NC(=O)Cc4ccc(S(C)(=O)=O)cc4)nc3[C@@H]2C(C)C)nc1C(F)(F)F and report
100 to 1000 nM

====

Listing: Ki of selected compounds
Target: recombinant RORγ Ligand Binding Domain (LBD) protein (Homo sapiens (Human))
Assay: Radio-Ligand RORγ Binding Assay (Assay 1)
Conditions: competition with 25-hydroxy [26,27-3H]-cholesterol, SPA; Table 9; read-out: RORγ Binding Ki Range*

>>> reported_measurement("CC(C)[C@H]1c2nc(C(=O)NCc3ccc(S(C)(=O)=O)cc3)sc2CN1Cc1ccc(C#N)cc1")
"< 100 nM"

If you can, please state the reported Ki value of CC(C)[C@@H]1c2nc(NC(=O)Cc3ccc(S(C)(=O)=O)cc3)sc2CN1Cc1ccc(OC(F)(F)F)cc1 .
100 to 1000 nM

// repeat for CCS(=O)(=O)c1ccc(CC(=O)Nc2nc3c(s2)CN(C[C@H]2C[C@H](C#N)C2)[C@H]3C(C)C)cc1 (relative stereo) and report
< 100 nM

// repeat for CCS(=O)(=O)c1ccc(CC(=O)Nc2nc3c(s2)CN(c2nccc(C4CC4)n2)[C@@H]3C(C)C)cc1 and report
< 100 nM

// repeat for CC(C)[C@H]1c2nc(NC(=O)Cc3ccc(S(C)(=O)=O)cc3)sc2CN1[C@H](C)c1cnc(Cl)cc1F and report
< 100 nM

// repeat for Cc1cc(C(F)(F)F)nc(N2Cc3sc(-c4ccc(C(F)(F)F)nc4)nc3[C@H]2C(C)C)n1 and report
> 1000 nM

// repeat for CCS(=O)(=O)c1ccc(CC(=O)Nc2nc3c(s2)CN(Cc2ccc(Cl)cc2)[C@@]3(C)C(C)C)cc1 and report
< 100 nM

// repeat for CCS(=O)(=O)c1ccc(CC(=O)Nc2nc3c(s2)CN(Cc2ccc(C#N)cc2)[C@H]3C(C)C)nc1 [drawing 230] and report
< 100 nM

====

Listing: IC50 of selected molecules
Target: full-length RORγt in Jurkat cells (Homo sapiens (Human), UniProt P51449)
Sequence (P51449 other isoform, or with tags, fused parts or gaps): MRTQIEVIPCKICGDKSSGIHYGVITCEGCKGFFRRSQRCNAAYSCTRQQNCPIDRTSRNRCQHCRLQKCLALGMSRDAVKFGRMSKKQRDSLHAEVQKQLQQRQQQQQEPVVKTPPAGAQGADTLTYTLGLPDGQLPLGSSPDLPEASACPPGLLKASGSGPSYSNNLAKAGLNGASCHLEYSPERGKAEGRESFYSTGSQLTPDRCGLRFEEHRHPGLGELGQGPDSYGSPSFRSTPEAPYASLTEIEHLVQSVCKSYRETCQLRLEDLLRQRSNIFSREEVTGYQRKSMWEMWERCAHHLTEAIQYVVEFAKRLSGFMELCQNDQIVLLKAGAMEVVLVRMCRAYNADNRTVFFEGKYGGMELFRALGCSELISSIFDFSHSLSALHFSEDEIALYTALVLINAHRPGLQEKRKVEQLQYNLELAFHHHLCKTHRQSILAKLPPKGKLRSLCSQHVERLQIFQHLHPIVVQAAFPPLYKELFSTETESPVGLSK
Assay: RORγt 5xRORE Assay in Jurkat Cells (Assay 2)
Type: cell-based
Conditions: Nanoluc luciferase reporter, 16-18 hrs, Table 9, read-out: RORγt5X IC50 Range*
Procedure: [formula] RORγt 5xRORE Assay in Jurkat Cells (Assay 2) Compounds of the present invention were tested for RORγ inverse agonist activity in a cell-based, transcriptional activity assay. Secreted Nanoluc® luciferase was used as a reporter for transcriptional activity of the full-length RORγt in Jurkat cells (ATCC, Cat. # TIB-152). […] Luciferase activity in the conditioned supernatants was determined with NanoGlo® assay reagents (Promega, Cat. # N1130).

See these solved cases before continuing.
>>> reported_measurement("CC(C)[C@H]1c2nc(NC(=O)Cc3ccc(F)c(F)c3)sc2CN1Cc1ccc(C(F)(F)F)cc1")
"100 to 1000 nM"
>>> reported_measurement("CCS(=O)(=O)c1ccc(CC(=O)Nc2nc3c(s2)CN(C[C@@H]2CCCCO2)[C@H]3C(C)C)cc1 (relative stereo)")
"> 1000 nM"
>>> reported_measurement("CCS(=O)(=O)c1ccc(CC(=O)Nc2nc3c(s2)CN(Cc2ccc(C(F)(F)F)cn2)[C@H]3C(C)C)nc1")
"100 to 1000 nM"

As a next step, examine the molecule that follows.
If you can, please state the reported IC50 value of CCS(=O)(=O)c1ccc(CC(=O)Nc2nc3c(s2)CN(Cc2ccc(OC(F)(F)F)cc2)[C@@H]3C(C)C)cc1 .
100 to 1000 nM

====

Target: recombinant RORγ Ligand Binding Domain (LBD) protein (Homo sapiens (Human))
Assay: Radio-Ligand RORγ Binding Assay (Assay 1)
Settings: competition with 25-hydroxy [26,27-3H]-cholesterol, SPA; Table 9; read-out: RORγ Binding Ki Range*
pKi: −log10 of the molar value.
Listing: pKi of selected molecules

See these solved cases before continuing.
>>> reported_measurement("CC(C)[C@H]1c2nc(NC(=O)Cc3ccc(S(C)(=O)=O)cc3)sc2CN1Cc1ccn(C(F)F)c(=O)c1")
"> 7.00"
>>> reported_measurement("CCS(=O)(=O)c1ccc(CC(=O)Nc2nc3c(s2)CN(C[C@@H]2CC[C@H](C(F)(F)F)OC2)[C@H]3C(C)C)nc1 (single isomer, unassigned)")
"> 7.00"
>>> reported_measurement("CCS(=O)(=O)c1ccc(CC(=O)Nc2nc3c(s2)CN(Cc2cccc(Br)c2)[C@@H]3C(C)C)cc1")
"> 7.00"

What is its pKi for recombinant RORγ Ligand Binding Domain (LBD) protein (Homo sapiens (Human))? Entry: CCS(=O)(=O)c1ccc(CC(=O)Nc2nc3c(s2)CN(C[C@H]2CC[C@H](C#N)CC2)[C@H]3C(C)C)cc1
> 7.00

// repeat for CCS(=O)(=O)c1ccc(CC(=O)Nc2nc3c(s2)CN([C@@H](C)Cc2ccc(Cl)cc2)[C@H]3C(C)C)cc1 and report
> 7.00

// repeat for CCS(=O)(=O)c1cnc(CC(=O)Nc2nc3c(s2)CN(Cc2ccc(C(F)(F)F)cc2)[C@@H]3C(C)C)nc1 and report
< 6.00

// repeat for CCS(=O)(=O)c1ccc(CNC(=O)c2nc3c(s2)CN(c2ncc(C(F)(F)F)cn2)[C@H]3C(C)C)cc1 and report
< 6.00

// repeat for Cc1cc(C(F)(F)F)nc(N2Cc3sc(NC(=O)Cc4ccc(S(C)(=O)=O)cc4)nc3[C@H]2C(C)C)n1 and report
6.00 to 7.00
